- assayed system: 5-hydroxytryptamine receptor 1B (Homo sapiens) (UniProt P28222)
- Sequence (P28222 whole entry): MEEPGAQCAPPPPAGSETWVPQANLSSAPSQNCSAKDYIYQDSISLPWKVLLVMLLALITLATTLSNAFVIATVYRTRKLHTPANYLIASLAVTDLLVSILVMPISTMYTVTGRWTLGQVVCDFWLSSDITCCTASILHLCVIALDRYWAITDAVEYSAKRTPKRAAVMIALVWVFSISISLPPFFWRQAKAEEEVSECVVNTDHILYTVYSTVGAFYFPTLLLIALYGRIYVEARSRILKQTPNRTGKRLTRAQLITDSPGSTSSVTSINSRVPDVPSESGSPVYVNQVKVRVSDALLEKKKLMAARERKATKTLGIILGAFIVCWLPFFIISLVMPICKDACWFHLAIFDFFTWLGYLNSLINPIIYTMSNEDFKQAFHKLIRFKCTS
- test conditions: Compound concentration 10 µM
- Description: PDSP Primary Binding target: HTR1B - Compounds are tested at 10 uM concentration, plate are incubated at room temperature in the dark for 90 minutes. Reaction are stopped by vacuum filtration onto 0.3% polyethyleneimine soaked filter mats using Filtermate harvester. Scintilation cocktail is then melted onto microwave-dried filters on a hot plate and the radio activity is counted in Microbia counter.
value type: inhibition (%)
Give the value, in units of %, as a plain number.

The examples below pair each entry with its known result.
C/C(=N\NC(=O)[C@@H]1C(=O)NC[C@H]1c1ccccc1)c1cccc(Br)c1: 3.07
CN(C)C(=O)C(CCN1CCC(O)(c2ccc(Cl)cc2)CC1)(c1ccccc1)c1ccccc1: 20.1
CCCSc1nc(N[C@@H]2C[C@H]2c2ccc(F)c(F)c2)c2nnn([C@@H]3C[C@H](OCCO)[C@@H](O)[C@H]3O)c2n1: 19.3

What value of measured inhibition is listed for FC(F)(F)c1cccc(-c2noc(-c3cc(-c4ccccc4)c(C(F)(F)F)s3)n2)c1 ?
1.92

====

- assayed system: Alpha-1B adrenergic receptor (Homo sapiens)
- test conditions: Compound concentration 10 µM
- Description: PDSP Primary Binding target: ADRA1B - Compounds are tested at 10 uM concentration, plate are incubated at room temperature in the dark for 90 minutes. Reaction are stopped by vacuum filtration onto 0.3% polyethyleneimine soaked filter mats using Filtermate harvester. Scintilation cocktail is then melted onto microwave-dried filters on a hot plate and the radio activity is counted in Microbia counter.
value type: inhibition (%)
State just the number; it will be interpreted in %.

Solved entries:
N=C(N)SCCc1c[nH]cn1: -9.87
CCC(=O)NCC[C@@H]1CCc2ccc3c(c21)CCO3: -0.82
C[C@@H](NCCCc1cccc(C(F)(F)F)c1)c1cccc2ccccc12: 53.8
CS(=O)(=O)NC[C@H]1CC[C@H](Nc2nc3c(s2)CCSc2ccccc2-3)CC1: -8.21
O=C(O)COc1cccc(CN(Cc2ccc(-n3cccn3)cc2)S(=O)(=O)c2cccnc2)c1: -5.67
CCCCN(CC)c1nc(C)nc2c1c(C)cn2-c1c(C)cc(C)cc1C: 14.4

Field request: inhibition | item: OC[C@H]1O[C@@H](n2cnc3c(NC4CCCC4)ncnc32)[C@H](O)[C@@H]1O
9.65

Form field: reported inhibition of CCCCN1CCC(COC(=O)c2cc(Cl)c(N)c3c2OCCO3)CC1
-1.39

Which inhibition is listed for Cc1cc(C)cc(C(=O)N(C)[C@H](Cc2ccc(-c3ccccc3)cc2)C(=O)N[C@@H](Cc2c[nH]c3ccccc23)C(=O)O)c1 ?
1.27

Looking for the measured inhibition of CC(C)(N)C(=O)N[C@H](COCc1ccccc1)C(=O)N1CCC2(CC1)CN(S(C)(=O)=O)c1ccccc12 , can you help?
11.4

====

- assayed system: Histamine H1 receptor (Homo sapiens)
- test conditions: Compound concentration 10 µM
- Description: PDSP Primary Binding target: HRH1 - Compounds are tested at 10 uM concentration, plate are incubated at room temperature in the dark for 90 minutes. Reaction are stopped by vacuum filtration onto 0.3% polyethyleneimine soaked filter mats using Filtermate harvester. Scintilation cocktail is then melted onto microwave-dried filters on a hot plate and the radio activity is counted in Microbia counter.
Readings of inhibition for the listed molecules
Express it in %; write the number only.

COc1ccc(S(=O)(=O)N2c3ccc(Cl)cc3[C@](O)(c3ccccc3Cl)[C@@H]2C(=O)N2CCC[C@H]2C(N)=O)cc1OC: 5.97
Clc1ccc(CCCOCCCN2CCCCC2)cc1: 68.7
CSc1ccc(C(=O)N[C@@H]2CCCC[C@@H]2NC(=O)CNC(=O)c2cc(C(F)(F)F)ccc2NC(=O)NC(C)C)cc1: 70.6
CC[C@@H]1CN2C(=O)N(C)c3nc(-c4ccccc4)[nH]c3C2=N1: 27.4

Turning now to a further record.
I'd like to know its inhibition. The molecule in question is CN1C(=O)[C@@H](NC(=O)c2cc3ccccc3[nH]2)N=C(c2ccccc2)c2ccccc21
-6.55

====

- assayed system: D(3) dopamine receptor (Homo sapiens)
- test conditions: Compound concentration 10 µM
- Description: PDSP Primary Binding target: DRD3 - Compounds are tested at 10 uM concentration, plate are incubated at room temperature in the dark for 90 minutes. Reaction are stopped by vacuum filtration onto 0.3% polyethyleneimine soaked filter mats using Filtermate harvester. Scintilation cocktail is then melted onto microwave-dried filters on a hot plate and the radio activity is counted in Microbia counter.
inhibition values by entry

Cc1nc(-c2ccc(-c3ccc(C(=O)N4CCc5cc6c(cc54)C4(CCN(C)CC4)CO6)cc3)c(C)c2)no1: 18.8%
C[C@]1(C(=O)N(CCCC(=O)O)Cc2cccc(Cl)c2)CCN1C(=O)c1csc2ccccc12: 29%
CC(C)NCC(O)COc1cccc2[nH]ccc12 (stereo not given): 65.4%
COc1ccc(Br)cc1S(=O)(=O)NC(=O)/C=C/c1ccccc1Cc1ccc2ccccc2c1: 64.7%

Here is another compound to look at.
Any idea what inhibition was measured for Cc1ccc2c(c1)c1c(n2CCc2ccc(C)nc2)CCN(C)C1 ?
72.3%
